Catalogue of inhibition at 10 µM values
- assay.system: BTK (Homo sapiens, UniProt Q06187)
- Sequence (Q06187 402-655 limits assumed): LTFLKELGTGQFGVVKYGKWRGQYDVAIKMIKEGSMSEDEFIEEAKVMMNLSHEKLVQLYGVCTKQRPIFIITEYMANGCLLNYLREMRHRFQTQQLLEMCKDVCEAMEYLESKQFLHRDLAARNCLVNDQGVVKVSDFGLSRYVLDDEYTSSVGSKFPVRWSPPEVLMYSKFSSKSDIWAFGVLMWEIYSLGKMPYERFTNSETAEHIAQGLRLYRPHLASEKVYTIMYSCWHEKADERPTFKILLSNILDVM
- test.summary: biochemical
- condition.context: read-out: BTK inhibition (%), 0.75 uM BTK, […] probe 3l, 15 min preincubation
Write the answer as a number in %, unit excluded.

As a guide, the following entries are already answered.
| compound | inhibition at 10 µM, % |
| --- | --- |
| NS(=O)(=O)c1cc2c(cc1Cl)NC(C(Cl)Cl)NS2(=O)=O (stereo not shown) [PCM-0086441] | -14 |
| COc1cc2c(=O)c(-c3ccc(O)cc3)coc2cc1O[C@@H]1O[C@H](CO)[C@@H](O)[C@H](O)[C@H]1O [PCM-0214955] | 15.6 |
| O=c1oc2c(O)c(O)cc3c(=O)oc4c(O)c(O)cc1c4c23 [PCM-0090664] | 15.3 |

For the next question, use this compound.
Prompt: Let me know recorded inhibition at 10 µM for O=c1c(N=Nc2nccs2)c(-c2ccccc2)[nH]n1-c1nc(-c2ccccc2)cs1 [PCM-0215938] , thanks.
Response: 98.1

====

- assay.system: BTK (Homo sapiens, UniProt Q06187)
- test.summary: biochemical
- condition.context: read-out: BTK inhibition (%), 0.75 uM BTK, […] probe 3l, 15 min preincubation
Catalogue of compounds with associated inhibition at 10 µM
I only need the number, in %, no unit after it.

Completed entries (count: 3):
| compound | inhibition at 10 µM (%) |
| --- | --- |
| CC(C)CCC[C@@H](C)[C@H]1CC[C@H]2[C@@H]3CC[C@H]4C[C@@H](O)CC[C@]4(C)[C@H]3CC[C@]12C [PCM-0216033] | -9.4 |
| CC[C@H]1[C@@H](O)[C@@H]2[C@H](CC[C@]3(C)[C@@H]([C@H](C)CCC(=O)O)CC[C@@H]23)[C@@]2(C)CC[C@@H](O)C[C@@H]12 [PCM-0215390] | 2.3 |
| CC1(C)S[C@@H]2[C@H](NC(=O)Cc3ccccc3)C(=O)N2[C@H]1C(=O)O [PCM-0214771] | -10.1 |

Prompt: Specify reported inhibition at 10 µM for the compound shown: CNc1nc(Nc2cn(C(C)(C)C#N)nc2C)ncc1C(F)(F)F [PCM-0095754]
Response: 7.6

Prompt: Consider the compound CCCNC(C)C(=O)Nc1ccccc1C (centres unmarked) [PCM-0065518] . State its measured inhibition at 10 µM.
Response: -16.3

Prompt: Please list inhibition at 10 µM recorded for the compound CC1(C)S[C@@H]2[C@H](NC(=O)[C@H](NC(=O)N3CCN(S(C)(=O)=O)C3=O)c3ccccc3)C(=O)N2[C@H]1C(=O)O [PCM-0214758]
Response: -19.5

Prompt: Write down inhibition at 10 µM measured for item CN1CC(O)c2cc(N=NC(N)=O)c(O)cc21 (centres unmarked) [PCM-0216016]
Response: 28.3

Prompt: Give reported inhibition at 10 µM value for C=C1C[C@@]2(O)O[C@@]3(C[C@H]2C(C)C)[C@@H](C)CC[C@@H]13 [PCM-0214683]
Response: -1.6

====

inhibition at 10 µM values by entry
- assay.system: BTK (Homo sapiens, UniProt Q06187)
- test.summary: biochemical
- condition.context: read-out: BTK inhibition (%), 0.75 uM BTK, […] probe 3l, 15 min preincubation
Expressed in %, but write only the number.

Prompt: Determine from records and report inhibition at 10 µM for COc1ccc([C@@H]2OC[C@H]3[C@@H]2CO[C@@H]3c2ccc(O[C@@H]3O[C@H](CO)[C@@H](O)[C@H](O)[C@H]3O)c(OC)c2)cc1OC
Response: -6.2

Prompt: Determine from records and report inhibition at 10 µM for COc1ccccc1OCC(O)CO (stereo not shown)
Response: -2.3

Prompt: Please supply the value of reported inhibition at 10 µM for the item CC(C)C12CCC(C)(CC1)O2
Response: 23.9

Prompt: Identify measured inhibition at 10 µM corresponding to COc1cc2c(=O)c(-c3ccc(O)cc3)coc2cc1O
Response: 6.2

Prompt: For the molecule CC(C)(O)CC(=O)NCCn1ccc2ncnc(Nc3ccc(Oc4cccc(C(F)(F)F)c4)c(Cl)c3)c21 , give its measured inhibition at 10 µM value.
Response: 73.8

Prompt: Identify measured inhibition at 10 µM associated with COC(c1ccccc1)(c1ccccc1)[C@H](Oc1nc(C)cc(C)n1)C(=O)O
Response: 10.9

Prompt: Report inhibition at 10 µM, nothing else, for this molecule: CO[C@@H]1[C@H](OC(=O)/C=C/C=C/C=C/C=C/C(=O)O)CC[C@]2(CO2)[C@H]1[C@@]1(C)O[C@@H]1CC=C(C)C
Response: 3.9

Prompt: Using known records, supply inhibition at 10 µM for COCC1(CO)C(=O)C2CCN1CC2 (stereo not shown)
Response: 0

====

- assay.system: BTK (Homo sapiens, UniProt Q06187)
- test.summary: biochemical
- condition.context: read-out: BTK inhibition (%), 0.75 uM BTK, […] probe 3l, 15 min preincubation
Below, each entry is listed alongside its reported inhibition at 10 µM.
State the answer as a number, implicitly in %.

See these solved cases before continuing.
| mol | assay.system | inhibition at 10 µM / % |
| --- | --- | --- |
| OC[C@H]1O[C@@H](Oc2c(O)cc(O)cc2/C=C/c2ccc(O)cc2)[C@H](O)[C@@H](O)[C@@H]1O | BTK (Homo sapiens, UniProt Q06187) | 9.7 |
| O=C(O)Cc1cccc(OCCCN(Cc2cccc(C(F)(F)F)c2Cl)CC(c2ccccc2)c2ccccc2)c1 | BTK (Homo sapiens, UniProt Q06187) | 23.4 |

Okay, next one:
Prompt: For the compound CC(C)=CCC/C(C)=C/Cc1c(O)c(CC=C(C)C)c2c(c1O)C(=O)C1=C[C@@H]3C[C@H]4C(C)(C)O[C@@](C/C=C(/C)C(=O)O)(C3=O)[C@@]14O2 , report inhibition at 10 µM.
Response: 100

====

- assay.system: BTK (Homo sapiens)
- test.summary: biochemical
- condition.context: read-out: BTK inhibition (%), 0.75 uM BTK, […] probe 3l, 15 min preincubation
Here the recorded inhibition at 10 µM is given for each entry.
Respond numerically; units are % and should not be typed.

| compound | assay.result |
| --- | --- |
| COc1cc([C@@H]2c3cc4c(cc3[C@@H](O[C@@H]3O[C@@H]5CO[C@@H](C)O[C@H]5[C@H](O)[C@H]3O)[C@H]3COC(=O)[C@H]23)OCO4)cc(OC)c1O | -2.8 |
| CCn1c(=O)c(-c2ccc(-c3cncs3)cc2Cl)cc2cnc(Nc3ccc(N4CCN(C)CC4)cc3)nc21 | 18.6 |
| COc1ccc2c(c1O)-c1c(O)c(OC)cc3c1[C@H](C2)[N+](C)(C)CC3 | -1.5 |
| COC(=O)N(C)c1c(N)nc(-c2nn(Cc3ccccc3F)c3ncccc23)nc1N | -25.5 |
| Cc1nc2n(c(=O)c1CCN1CCC(c3noc4cc(F)ccc34)CC1)CCCC2 | 1.7 |

Prompt: Identify measured inhibition at 10 µM associated with Cc1cccc(C)c1OCC(=O)N[C@@H](Cc1ccccc1)[C@@H](O)C[C@H](Cc1ccccc1)NC(=O)[C@H](C(C)C)N1CCCNC1=O
Response: -21.8

Prompt: Tell me inhibition at 10 µM reported for CC(C)Cn1cnc2c(N)nc3ccccc3c21
Response: -2.6

Prompt: Note down inhibition at 10 µM recorded for O=C1C(N(CO)C(=O)NCO)N(CO)C(=O)N1CO (centres unmarked)
Response: -5.4

Prompt: Give reported inhibition at 10 µM value for CCCNC(C)C(=O)Nc1c(C)csc1C(=O)OC (centres unmarked)
Response: -13.2

Prompt: Name the recorded inhibition at 10 µM of the item CSc1ccc(C(=O)/C=C/c2cc(C)c(OC(C)(C)C(=O)O)c(C)c2)cc1 in your answer.
Response: 7

Prompt: Give a short answer stating reported inhibition at 10 µM for O=C1CC(c2c[nH]c3ccc(F)cc23)C(=O)N1 (centres unmarked) .
Response: -5.4

Prompt: Answer with reported inhibition at 10 µM of CN1C(C(=O)Nc2ccccn2)=C(O)c2sc(Cl)cc2S1(=O)=O
Response: -0.9

Prompt: # return recorded inhibition at 10 µM for input Cc1ccc(CNc2ncnc3ccc(-c4ccc(CO)o4)cc23)o1
Response: 6.9

Prompt: Tell me measured inhibition at 10 µM for CCn1cc(C(=O)O)c(=O)c2cc(F)c(N3CCNC(C)C3)c(F)c21 (centres unmarked) please.
Response: -2.6

Prompt: For the compound CCCCN1CCCCC1C(=O)Nc1c(C)cccc1C (centres unmarked) , give its reported inhibition at 10 µM.
Response: -9.3

Prompt: Dear colleague, please send me the reported inhibition at 10 µM for C[C@H](C[C@H](O)[C@H]1OC1(C)C)C1=C2C[C@H](O)[C@H]3[C@@]4(C)CCC(=O)C(C)(C)[C@@H]4CC[C@]3(C)[C@@]2(C)CC1 when you can.
Response: -24.7

Prompt: Quick one: give measured inhibition at 10 µM for OC1CCC(Oc2cccc3cnc(Nc4ccc5nc[nH]c5c4)nc23)CC1 (centres unmarked)
Response: 66.2
